Molecular target: PDGF-R (Homo sapiens)
Sequence (P09619 33-1106, species assumed): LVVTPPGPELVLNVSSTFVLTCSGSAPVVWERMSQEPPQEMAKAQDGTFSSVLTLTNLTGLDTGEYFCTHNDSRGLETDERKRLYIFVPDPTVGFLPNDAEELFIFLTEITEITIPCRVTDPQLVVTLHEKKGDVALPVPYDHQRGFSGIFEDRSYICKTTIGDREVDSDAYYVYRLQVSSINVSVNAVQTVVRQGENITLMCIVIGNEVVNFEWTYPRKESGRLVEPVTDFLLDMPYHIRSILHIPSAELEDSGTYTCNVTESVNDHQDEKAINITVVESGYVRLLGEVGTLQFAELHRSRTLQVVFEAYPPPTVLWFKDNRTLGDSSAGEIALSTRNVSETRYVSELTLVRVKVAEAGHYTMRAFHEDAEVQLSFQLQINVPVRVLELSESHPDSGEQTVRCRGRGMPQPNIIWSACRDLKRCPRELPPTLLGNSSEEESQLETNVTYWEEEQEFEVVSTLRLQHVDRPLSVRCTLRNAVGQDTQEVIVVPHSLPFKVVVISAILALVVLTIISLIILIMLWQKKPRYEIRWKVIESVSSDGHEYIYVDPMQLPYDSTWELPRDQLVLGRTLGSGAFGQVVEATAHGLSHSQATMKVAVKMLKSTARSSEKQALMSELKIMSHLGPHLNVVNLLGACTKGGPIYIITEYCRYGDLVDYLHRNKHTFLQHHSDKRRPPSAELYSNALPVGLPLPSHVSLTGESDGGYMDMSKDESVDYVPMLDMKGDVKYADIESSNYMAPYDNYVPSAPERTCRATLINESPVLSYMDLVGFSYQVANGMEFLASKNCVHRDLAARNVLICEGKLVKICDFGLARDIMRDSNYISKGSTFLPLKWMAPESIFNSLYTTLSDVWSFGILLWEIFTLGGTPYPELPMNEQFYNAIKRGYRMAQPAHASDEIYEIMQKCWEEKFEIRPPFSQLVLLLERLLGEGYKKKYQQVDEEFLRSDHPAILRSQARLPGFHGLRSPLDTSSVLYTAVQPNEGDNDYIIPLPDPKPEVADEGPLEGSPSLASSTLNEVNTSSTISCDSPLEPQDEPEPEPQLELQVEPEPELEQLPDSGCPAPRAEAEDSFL
Experiment: PDGF-R ELISA
Type: cell-based
measuredQuantity: PDGF Kinase %Inhibition

| compound | measuredQuantity | readoutValue |
| --- | --- | --- |
| COc1c(Cl)cc(C=C2C(=O)Nc3ccc(I)cc32)cc1C(C)(C)C | PDGF Kinase %Inhibition | 18.4% |
| N#Cc1cccc(C=C2C(=O)Nc3ccc(S(=O)(=O)N4CCOCC4)cc32)c1 | PDGF Kinase %Inhibition | 10.1% |
| CNS(=O)(=O)c1ccc2c(c1)C(=Cc1ccc(O)c(O)c1O)C(=O)N2 | PDGF Kinase %Inhibition | 22.1% |
| O=C1Nc2ccc(CCCl)cc2C1=Cc1ccccc1Br | PDGF Kinase %Inhibition | -5.6% |
| COc1cccc(C=C2C(=O)Nc3ccc(S(=O)(=O)N4CCOCC4)cc32)c1OC | PDGF Kinase %Inhibition | 18.1% |
| O=C1Nc2ccc(I)cc2C1=Cc1cc2ccccc2nc1Cl | PDGF Kinase %Inhibition | 0.2% |
| COc1cccc(C=C2C(=O)Nc3c(Br)cc(Br)cc32)c1OC | PDGF Kinase %Inhibition | 10.8% |
| O=C1Nc2ccc(I)cc2C1=CC1C=CCCC1 (stereo not drawn) | PDGF Kinase %Inhibition | 4.2% |
| N#Cc1cccc(C=C2C(=O)Nc3ccc(S(=O)(=O)Nc4ccc(C(F)(F)F)cc4)cc32)c1 | PDGF Kinase %Inhibition | 23.9% |
| Cc1c(Br)ccc2c1C(=Cc1ccc(O)c([N+](=O)[O-])c1)C(=O)N2 | PDGF Kinase %Inhibition | 4.3% |
| COc1ccc(C=C2C(=O)Nc3c(Br)cc(Br)cc32)cc1 | PDGF Kinase %Inhibition | 23.3% |
| Cc1c(Br)ccc2c1C(=Cc1cc(C(C)C)c(O)c(C(C)C)c1)C(=O)N2 | PDGF Kinase %Inhibition | 34.9% |
| CNS(=O)(=O)c1ccc2c(c1)C(=Cc1cc(C(C)(C)C)c(OC)c(C(C)(C)C)c1)C(=O)N2 | PDGF Kinase %Inhibition | 26.5% |
| O=C1Nc2ccccc2C1=C1C(=O)Nc2ccc(CCCl)cc21 | PDGF Kinase %Inhibition | 13.2% |
| CNS(=O)(=O)c1ccc2c(c1)C(=Cc1cc(Cl)c(OC)c(C(C)(C)C)c1)C(=O)N2 | PDGF Kinase %Inhibition | 15.9% |
| O=C1Nc2ccc(S(=O)(=O)N3CCOCC3)cc2C1=Cc1cc2c(cc1Cl)OCO2 | PDGF Kinase %Inhibition | 8.6% |
| Cc1c(Br)ccc2c1C(=Cc1coc3ccc([N+](=O)[O-])cc3c1=O)C(=O)N2 | PDGF Kinase %Inhibition | 31.3% |
| COc1c(Cl)cc(C=C2C(=O)Nc3ccc(S(=O)(=O)Nc4ccc(C(F)(F)F)cc4)cc32)cc1C(C)(C)C | PDGF Kinase %Inhibition | 46.7% |

* * *

# Biochem EGFR %Inhibition listing for each entry below
Molecular target: EGFR (Homo sapiens, UniProt P00533)
Construct: Add 7 ug A431 cell lysate per well (EGFR source); endogenous in cells; host or cells: A431
Sequence (P00533 25-1210): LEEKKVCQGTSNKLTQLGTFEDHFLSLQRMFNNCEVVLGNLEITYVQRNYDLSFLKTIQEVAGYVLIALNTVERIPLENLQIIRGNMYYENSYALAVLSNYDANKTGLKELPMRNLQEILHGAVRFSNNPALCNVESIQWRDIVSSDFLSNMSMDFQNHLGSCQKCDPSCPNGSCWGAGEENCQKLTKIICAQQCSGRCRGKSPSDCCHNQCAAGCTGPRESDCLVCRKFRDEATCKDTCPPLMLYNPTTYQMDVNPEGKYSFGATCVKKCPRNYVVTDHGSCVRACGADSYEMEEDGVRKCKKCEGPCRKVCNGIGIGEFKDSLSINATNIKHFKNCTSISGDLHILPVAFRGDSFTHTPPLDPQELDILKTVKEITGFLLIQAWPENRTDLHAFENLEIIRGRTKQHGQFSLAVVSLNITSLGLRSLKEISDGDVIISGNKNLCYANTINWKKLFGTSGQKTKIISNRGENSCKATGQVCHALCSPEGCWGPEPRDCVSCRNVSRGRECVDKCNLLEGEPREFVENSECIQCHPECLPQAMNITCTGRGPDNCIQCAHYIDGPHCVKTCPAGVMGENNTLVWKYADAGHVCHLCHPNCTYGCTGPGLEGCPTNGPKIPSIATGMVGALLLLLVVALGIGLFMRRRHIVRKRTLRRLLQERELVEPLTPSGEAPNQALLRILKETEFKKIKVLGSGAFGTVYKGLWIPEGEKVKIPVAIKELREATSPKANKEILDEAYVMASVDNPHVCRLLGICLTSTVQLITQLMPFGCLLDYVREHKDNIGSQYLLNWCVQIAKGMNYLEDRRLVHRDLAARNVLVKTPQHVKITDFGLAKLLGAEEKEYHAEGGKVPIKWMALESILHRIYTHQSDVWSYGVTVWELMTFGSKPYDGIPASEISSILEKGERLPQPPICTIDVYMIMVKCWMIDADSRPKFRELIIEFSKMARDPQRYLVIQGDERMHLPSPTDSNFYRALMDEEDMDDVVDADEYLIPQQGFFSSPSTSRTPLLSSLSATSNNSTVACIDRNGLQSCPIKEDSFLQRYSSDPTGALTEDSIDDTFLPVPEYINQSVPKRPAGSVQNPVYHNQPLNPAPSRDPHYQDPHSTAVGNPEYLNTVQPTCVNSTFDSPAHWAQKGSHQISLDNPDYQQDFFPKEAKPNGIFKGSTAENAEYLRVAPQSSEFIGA
Test: EGFR ELISA assay (in vitro kinase activity, EGFR captured from A431 cell lysate)
Format: biochemical
Design: concentration or dose not given beside the values

| compound | systemTested | u | Biochem EGFR %Inhibition |
| --- | --- | --- | --- |
| O=C1Nc2c(Br)cc(Br)cc2C1=Cc1cc(O)c(O)c(Br)c1 | EGFR (Homo sapiens, UniProt P00533) | % | 30.8 |
| O=C1Nc2ccc(S(=O)(=O)Nc3ccc(C(F)(F)F)cc3)cc2C1=Cc1ccc(Br)cc1 | EGFR (Homo sapiens, UniProt P00533) | % | 28.2 |
| O=C1Nc2ccc(I)cc2C1=Cc1cc(Cl)cc(Cl)c1O | EGFR (Homo sapiens, UniProt P00533) | % | 45.1 |
| COc1c(O)ccc(C=C2C(=O)Nc3c(Br)cc(Br)cc32)c1[N+](=O)[O-] | EGFR (Homo sapiens, UniProt P00533) | % | 23.0 |
| CCN(CC)c1ccc(C=C2C(=O)Nc3ccc(S(=O)(=O)Nc4ccc(C(F)(F)F)cc4)cc32)c(O)c1 | EGFR (Homo sapiens, UniProt P00533) | % | 7.9 |
| CNS(=O)(=O)c1ccc2c(c1)C(=Cc1cc([N+](=O)[O-])c(OC)c(C(C)(C)C)c1)C(=O)N2 | EGFR (Homo sapiens, UniProt P00533) | % | 11.2 |
| Cc1c(Br)ccc2c1C(=Cc1cc(Cl)cc(Br)c1O)C(=O)N2 | EGFR (Homo sapiens, UniProt P00533) | % | 27.6 |
| CCN(CC)c1ccc(C=C2C(=O)Nc3ccc(S(=O)(=O)NC)cc32)cc1 | EGFR (Homo sapiens, UniProt P00533) | % | 22.6 |
| Cc1c(Br)ccc2c1C(=Cc1ccc(O)cc1)C(=O)N2 | EGFR (Homo sapiens, UniProt P00533) | % | 14.4 |
| O=C1Nc2ccc(S(=O)(=O)Nc3ccc(C(F)(F)F)cc3)cc2C1=Cc1c(O)cc(O)cc1O | EGFR (Homo sapiens, UniProt P00533) | % | 33.0 |
| O=C1Nc2ccc(S(=O)(=O)Nc3ccc(C(F)(F)F)cc3)cc2C1=Cc1ccc(O)c(Br)c1 | EGFR (Homo sapiens, UniProt P00533) | % | 73.0 |
| Cc1cc(C=C2C(=O)Nc3ccc(S(=O)(=O)N4CCOCC4)cc32)oc1C | EGFR (Homo sapiens, UniProt P00533) | % | -24.1 |
| Cc1c(Br)ccc2c1C(=Cc1coc3ccc([N+](=O)[O-])cc3c1=O)C(=O)N2 | EGFR (Homo sapiens, UniProt P00533) | % | 35.5 |
| CNS(=O)(=O)c1ccc2c(c1)C(=Cc1cccc(Br)c1)C(=O)N2 | EGFR (Homo sapiens, UniProt P00533) | % | -9.3 |
| CC(C)(C)c1cc(C=C2C(=O)Nc3c(Br)cc(Br)cc32)cc(Br)c1OCc1ccccc1 | EGFR (Homo sapiens, UniProt P00533) | % | 12.1 |
| Cc1c(Br)ccc2c1C(=Cc1c[nH]c(=O)[nH]c1=O)C(=O)N2 | EGFR (Homo sapiens, UniProt P00533) | % | 23.6 |
| CNS(=O)(=O)c1ccc2c(c1)C(=Cc1coc3ccc([N+](=O)[O-])cc3c1=O)C(=O)N2 | EGFR (Homo sapiens, UniProt P00533) | % | 25.9 |

* * *

System: MET
Test: MET biochemical kinase assay
Set-up: species or system human; concentration or dose not given beside the values
Met Kinase % Inhibition vs 50%: less than gives y; not less than gives n.

| compound | cat |
| --- | --- |
| Cn1c(C=C2C(=O)Nc3ccc(S(=O)(=O)N4CCOCC4)cc32)nc2ccccc21 [10721/F02] | y |
| CCc1c(C)[nH]c(C=C2C(=O)Nc3ccc(S(=O)(=O)Nc4ccc(C(F)(F)F)cc4)cc32)c1C [10719/E05] | y |
| O=C1Nc2c(Br)cc(Br)cc2C1=Cc1ccc([N+](=O)[O-])c(O)c1 [10724/A04] | n |
| CNS(=O)(=O)c1ccc2c(c1)C(=Cc1cn(C(C)=O)c3ccccc13)C(=O)N2 [10730/D05] | y |
| O=C1Nc2ccc(I)cc2C1=Cc1cc([N+](=O)[O-])ccc1O [10733/B10] | n |
| O=C1Nc2ccc(I)cc2C1=Cc1cccc(Br)c1 [10723/B10] | n |
| Cc1ccc2occ(C=C3C(=O)Nc4ccc(S(=O)(=O)N5CCOCC5)cc43)c(=O)c2c1 [10731/F06] | y |
| CCc1ccc(C=C2C(=O)Nc3ccc(I)cc32)o1 [10724/B10] | n |
| CCOc1cccc(C=C2C(=O)Nc3ccc(CCCl)cc32)c1O [10734/G02] | n |
| O=C1Nc2c(Br)cc(Br)cc2C1=Cc1cc(O)ccc1O [10727/A10] | n |
| O=C1Nc2c(Br)cc(Br)cc2C1=Cc1cc(O)c(O)c(Br)c1 [10723/A04] | n |
| O=C1Nc2ccc(CCCl)cc2C1=Cc1ccc([N+](=O)[O-])o1 [10718/G11] | y |
| O=C1Nc2ccc(S(=O)(=O)Nc3ccc(C(F)(F)F)cc3)cc2C1=Cc1coc2ccc(Cl)cc2c1=O [10730/E06] | n |
| CNS(=O)(=O)c1ccc2c(c1)C(=Cc1ccc([N+](=O)[O-])s1)C(=O)N2 [10722/D04] | n |
| O=C1Nc2ccc(I)cc2C1=Cc1c(F)cccc1C(F)(F)F [10728/B09] | n |
| O=C1Nc2ccc(I)cc2C1=Cc1ccco1 [10718/B10] | n |
